Experiment: Cytotoxic Profiling in NIH 3T3 Cell Line of Diverse Libraries Using Quantitative High-Throughput Screening; also: nearly all actives have a fitted effect of over 55% in size
Conditions: NIH 3T3 viability, CellTiter-Glo ATP luminescence, 48-72 h; series mostly up to 96.7 µM
Description: Cell-based phenotypic screening is a commonly used approach to discover biological pathways, novel drug targets, chemical probes and high-quality hit-to-lead molecules. Many hits identified from high-throughput screening campaign are ruled out through a series of follow-up potency, selectivity/specificity, and cytotoxicity assays. […]
In all, about 94,000 compounds went through this assay and about 4,000 (4.3%) were called active. Not shown: some 29% with an inconclusive outcome. Calls follow the shape of the dose curve; as a rule, active = well fitted inhibition curve with a large enough effect; inconclusive = small, poorly fitted or top-dose-only effect; inactive = no such curve, though single readings can be large or run the other way. This excerpt belongs to a sample that is enriched for actives.
Lab note: assign the record to one of Yes = active, No = inactive

Take a look at these entries with their results.
molecule | class.assignment
CC1=NOC2(CCN(Cc3c[nH]c4ccccc34)CC2)C1 | No
CC[C@H]1CN2CC[C@H]1C[C@@H]2CNCc1cccc(C#N)c1 | No
O=C(N1[C@H]2CC[C@@H]1c1cnc(-c3ccccc3)nc1C2)C1(c2ccccc2)CC1 | No
Cn1cccc1CN1CCC2(COc3ccncc3[S+](=O)([O-])N2)C1 (configuration not stated) | No
COc1ccc(-c2cc([C@H]3CN4CC[C@H]3C[C@@H]4CNC(=O)c3ccccc3)n(C)n2)cc1OC | No
CCCNC(=O)OC[C@H]1C[C@@H]2CCN1C[C@@H]2c1cc(-c2ccc(OC)c(OC)c2)nn1C | No

Exercise: I'd appreciate the recorded outcome for "COc1ccc(C(=O)NC[C@H]2C[C@@H]3CCN2C[C@@H]3c2cc(-c3ccccc3)nn2C)cc1" from this test.
Key: Yes

Exercise: // next record "Cc1ccc(C(=O)N2CCC3(CC2)c2nccn2-c2ccccc2CN3C)cc1C"
Key: No

Exercise: // next record "COc1ccccc1-c1cc([C@H]2CN3CC[C@H]2C[C@@H]3CNC(=O)c2ccco2)n(C)n1"
Key: No

Exercise: // next record CC(=O)NCCNC(=O)[C@H]1CN2CCC1C[C@@H]2Cn1cc(-c2ccc(C(C)(C)C)cc2)nn1 (some centres not stated)
Key: No

Exercise: // next record "CC[C@H]1CN2CC[C@H]1C[C@@H]2CNC(=O)c1ccc(N(C)C)cc1"
Key: No

Exercise: // next record "Cc1nc(-c2ccccc2)cc([C@H]2CN3CC[C@H]2C[C@@H]3CNC2CCOCC2)n1"
Key: Yes

Exercise: // next record "CN(CCc1ccccn1)C[C@H]1CN2CC[C@H]1C[C@@H]2CNC(=O)c1ccccc1"
Key: No

Exercise: // next record "CN(C)[C@@H]1CN(C(=O)Cc2ccc(F)cc2)C[C@H]1CO"
Key: No

Exercise: // next record "Cc1nc(-c2ccc(N(C)C)cc2)cc([C@H]2CN3CC[C@H]2C[C@@H]3CNC(=O)C2CCC2)n1"
Key: Yes

Exercise: // next record "CC(C)NC(=O)NC[C@H]1C[C@@H]2CCN1C[C@@H]2CN1CCCC1"
Key: No

Exercise: // next record "O=C(COc1ccccc1)N1C[C@@H]2C[C@H](C1)c1c(-c3ccccc3F)ccc(=O)n1C2"
Key: No

Exercise: // next record "FC(F)(F)CN1C2CCC1CN(c1cccc(Cl)n1)C2"
Key: No

Exercise: // next record "Cc1nc(-c2ccc(C(F)(F)F)cc2)cc([C@H]2CN3CC[C@H]2C[C@@H]3CNC(=O)c2ccco2)n1"
Key: Yes

Exercise: // next record "C=CCN(C)C[C@H]1CN2CC[C@H]1C[C@@H]2CNC(=O)Nc1cccc(SC)c1"
Key: Yes

Exercise: // next record "C#C[C@H]1CN2CC[C@H]1C[C@@H]2CNC(=O)C1CC1"
Key: No
